meta.source: patent US20230293526A1

# Test system: SK-MEL-3
# assay-details: Cell proliferation CellTiterGlo Ex.2
# Type: cell-based
# setup-conditions: Homo sapiens, SK-MEL3; SK-MEL-3 (Skin), 72 h
quantity-measured: IC50

Quick note, IC50 for C#C[C@]1(CO)O[C@@H](n2cnc3c(=O)[nH]c(N)nc32)C[C@@H]1O landed at > 10 µM

###

# Test system: A375
# assay-details: Cell proliferation Ex.3
# Format: cell-based
# setup-conditions: Homo sapiens, A-375; A375, 120 h
pIC50: −log10 of the molar value.
quantity-measured: pIC50

Lab book: pIC50 of C#C[C@]1(CO)O[C@@H](n2cc(F)c(N)nc2=O)C[C@@H]1O noted as < 5.00

###

# Tested on: HCT116
# assay-details: Cell proliferation CellTiterGlo Ex.2
# Format: cell-based
# setup-conditions: Homo sapiens, HCT-116; HCT116 (Colon), 72 h
quantity-measured: IC50 (µM)
Unit µM implied. Number only.

The recorded IC50 for C#C[C@]1(CO)O[C@@H](n2cnc3c(=O)[nH]c(N)nc32)C[C@@H]1O is 5.84

###

# Tested on: T84
# assay-details: Cell proliferation CellTiterGlo Ex.2
# Type: cell-based
# setup-conditions: Homo sapiens; T84 (Colon), 72 h
quantity-measured: IC50

// C#C[C@]1(CO)O[C@@H](n2cnc3c(=O)[nH]c(N)nc32)C[C@@H]1O : IC50 value = > 10 µM

###

# Test system: cancer cell lines
# assay-details: Cancer cell proliferation activity of representative nucleosides, CellTiterGlo 72 h (Example 7, Tables 8 and 9)
# Format: cell-based
# setup-conditions: Homo sapiens, SK-MEL-28, 72 h, SKMEL28, skin, 72 h
pIC50 overview
The scale used: pIC50 is minus the common logarithm of the concentration in molar units.

C#C[C@]1(CO)O[C@@H](n2cnc3c(=O)[nH]c(N)nc32)C[C@@H]1O | 5.22
CC[C@]1(CO)O[C@@H](n2cnc3c(N)nc(N)nc32)C[C@@H]1O | 5.51

Consider now this further compound.
For this compound ( C[C@]1(CO)O[C@@H](n2ccc(N)nc2=O)C[C@@H]1O ), measured pIC50 is 5.93

###

# Tested on: SW480
# assay-details: Cell proliferation CellTiterGlo Ex.2
# Type: cell-based
# setup-conditions: Homo sapiens; SW480 (Colon), 72 h
# Procedure: A dose response relationship on cell proliferation was assessed for Compound 13 on 140 tumor cell lines. […] Cells were cultured in the appropriate media. […] After incubation for 72 h at 37° C. at 5% or 10% CO2 dependent on the medium, cell plates were equilibrated to room temperature for one hour, CellTiterGlo reagent (Promega) was added and luminescence was measured approximately an hour later using a luminometer. […]
quantity-measured: IC50

Simply: C#C[C@]1(CO)O[C@@H](n2cnc3c(=O)[nH]c(N)nc32)C[C@@H]1O , SW480, IC50 = > 10 µM

###

# System: L363
# assay-details: Cell proliferation Ex.3
# Type: cell-based
# setup-conditions: Homo sapiens, L-363; L363, 168 h
quantity-measured: IC50

Entry C#C[C@]1(CO)O[C@@H](n2cc(F)c(N)nc2=O)C[C@@H]1O ; IC50 = > 10 µM

###

# Test system: MCF7
# assay-details: Cell proliferation Ex.3
# Assay type: cell-based
# setup-conditions: Homo sapiens, MCF7, 168 h
quantity-measured: IC50

Form field, IC50 with MCF7, item C#C[C@]1(CO)O[C@@H](n2cc(F)c(N)nc2=O)C[C@@H]1O : > 10 µM
